Give measured CC50 for each item. Keep answers brief.
- assay.name: in vitro
- measurement.parameters: African green monkey, CC50, conditions of the ZIKAV assay (Table 3)

Just so you know, measured CC50 for N#Cc1ccc(-c2ccc(/C=C3\C(=O)NC(=S)N(CCc4ccccc4)C3=O)[nH]2)cc1 [Compound 15d] came out at > 300 µM

Just so you know, measured CC50 for O=C1NC(=S)N(CCc2ccccc2)C(=O)/C1=C/c1ccc(-c2ccc(-c3nnn[nH]3)cc2)[nH]1 [Compound 15c] came out at > 300 µM

Just so you know, measured CC50 for O=C1NC(=S)N(CCc2ccccc2)C(=O)/C1=C\c1ccc(-c2ccc(C(=O)O)c(O)c2)[nH]1 [Compound 15b] came out at > 111 µM

Just so you know, measured CC50 for O=C(O)c1ccc(-c2ccc(CC3C(=O)NC(=S)N(CCc4ccccc4)C3=O)[nH]2)cc1O (stereo not shown) [Compound 18] came out at > 300 µM

----------
- System: DENV-2
- assay.name: DENV plaque reduction assay on Huh-7 cells
- Assay type: cell-based, Dengue virus
- measurement.parameters: Dengue virus, DENV2, Huh-7; DENV-2 infected cells
Give measured EC50 for each item. Keep answers brief.
Report as a plain number; the unit µM is understood.

EC50 value, target or system DENV-2, for O=C1NC(=S)N(CCc2ccccc2)C(=O)/C1=C\c1ccc(-c2ccc(C(=O)O)c(O)c2)[nH]1 [Compound 15b] : 1.4

EC50 value, target or system DENV-2, for O=C1NC(=S)N(Cc2ccccn2)C(=O)/C1=C\c1ccc(-c2ccc(-c3nnn[nH]3)cc2)[nH]1 [Compound 15p] : 12.2

EC50 value, target or system DENV-2, for O=C1NC(=S)N(CCc2ccc(O)cc2)C(=O)/C1=C\c1ccc(-c2ccc(C(=O)O)c(O)c2)[nH]1 [Compound 15f] : 7.8

EC50 value, target or system DENV-2, for O=C1NC(=S)N(CCc2ccccc2)C(=O)/C1=C/c1ccc(-c2ccc(-c3nnn[nH]3)cc2)[nH]1 [Compound 15c] : 3.4

----------
- System: HeLa cells
- assay.name: Cell viability (MTS) assay, HeLa cells
- Type: cell-based, human
- measurement.parameters: conditions of the Ad5 assay
observation.type: CC50

Just so you know, measured CC50 for O=C1NC(=S)N(CCc2ccccc2)C(=O)/C1=C\c1ccc(-c2ccc(C(=O)O)c(O)c2)[nH]1 [Compound 15b] came out at > 300 µM

----------
- Test system: HSV-2
- assay.name: During infection assay, HSV-2 on Vero cells without preincubation
- Format: cell-based, Herpes 2 virus (HSV-2)
- measurement.parameters: Human alphaherpesvirus 2; HSV-2, Vero cells, no preincubation of compound and virus; read-out: EC50 in during infection (DI) assay
observation.type: EC50
Give the number first and the unit second.

EC50 value, target or system HSV-2, for O=C1NC(=S)N(CCc2ccccc2)C(=O)/C1=C\c1ccc(-c2ccc(C(=O)O)c(O)c2)[nH]1 [Compound 15b] : 7.89 µM
